target: hERG (Homo sapiens (Human), UniProt Q12809); assay: Patch clamp assay (hERG tail currents, whole-cell); assay type: cell-based; conditions: 30 μM compound, hERG transfected HEK 293 cells
Sequence (Q12809 whole entry): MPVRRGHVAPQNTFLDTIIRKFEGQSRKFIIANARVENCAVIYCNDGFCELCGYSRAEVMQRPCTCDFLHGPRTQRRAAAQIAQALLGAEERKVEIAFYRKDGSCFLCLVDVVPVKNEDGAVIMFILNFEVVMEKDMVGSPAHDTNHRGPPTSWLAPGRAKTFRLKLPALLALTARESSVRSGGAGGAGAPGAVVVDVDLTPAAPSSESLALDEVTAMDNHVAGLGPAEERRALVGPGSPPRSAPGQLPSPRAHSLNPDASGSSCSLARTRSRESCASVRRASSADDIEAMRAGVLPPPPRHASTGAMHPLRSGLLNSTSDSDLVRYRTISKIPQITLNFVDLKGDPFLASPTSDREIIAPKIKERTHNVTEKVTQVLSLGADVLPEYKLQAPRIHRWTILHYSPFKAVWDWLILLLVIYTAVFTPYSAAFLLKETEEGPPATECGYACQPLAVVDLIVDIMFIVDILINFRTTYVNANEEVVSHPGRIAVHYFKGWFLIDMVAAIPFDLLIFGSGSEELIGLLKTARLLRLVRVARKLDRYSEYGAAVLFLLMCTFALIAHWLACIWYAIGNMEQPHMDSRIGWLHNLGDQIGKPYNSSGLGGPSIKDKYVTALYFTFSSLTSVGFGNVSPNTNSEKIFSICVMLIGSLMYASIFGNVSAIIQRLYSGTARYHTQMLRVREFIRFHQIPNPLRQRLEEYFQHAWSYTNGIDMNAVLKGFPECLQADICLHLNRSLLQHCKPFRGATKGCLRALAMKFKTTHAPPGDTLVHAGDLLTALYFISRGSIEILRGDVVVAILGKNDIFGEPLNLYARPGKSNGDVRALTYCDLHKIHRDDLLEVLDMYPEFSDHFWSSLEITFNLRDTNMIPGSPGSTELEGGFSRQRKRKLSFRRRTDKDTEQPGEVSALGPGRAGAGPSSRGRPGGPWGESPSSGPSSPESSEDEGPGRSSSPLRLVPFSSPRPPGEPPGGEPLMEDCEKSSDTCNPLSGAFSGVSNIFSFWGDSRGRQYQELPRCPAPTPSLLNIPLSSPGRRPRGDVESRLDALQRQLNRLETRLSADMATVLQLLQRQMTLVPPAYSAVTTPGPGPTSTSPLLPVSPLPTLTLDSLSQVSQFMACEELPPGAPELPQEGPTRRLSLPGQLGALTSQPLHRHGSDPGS
quantityMeasured: hERG % Remaining 30 μM

Worked cases, hERG % Remaining 30 μM given:
1. Cc1ncc(S(=O)(=O)N[C@@H]2CC[C@@H](CN3CCC4(CC3)CN(c3ncncc3Oc3ccc(F)cc3C(=O)N(C(C)C)C(C)C)C4)OC2)o1
+ (“+” means <33%)
2. CCN(C(=O)c1cc(F)ccc1Oc1cncnc1N1CC2(CCN(C[C@@H]3CC[C@@H](NC(=O)NCC(F)(F)F)CO3)CC2)C1)C(C)C
+ (“+” means <33%)
3. CC(C)N(CC(F)F)C(=O)c1cc(F)ccc1Oc1cncnc1N1CC2(CCN(C[C@@H]3CC[C@@H](NS(=O)(=O)NC4CC4)CO3)CC2)C1
+++ (“+++” means ≥66%)
4. CCS(=O)(=NC)N[C@@H]1CC[C@@H](CN2CCC3(CC2)CN(c2ncncc2Oc2ccc(F)cc2C(=O)N(C(C)C)C(C)C)C3)OC1 (stereo partly drawn)
+++ (“+++” means ≥66%)
5. CNS(=O)(=O)N[C@@H]1CC[C@@H](CN2CCC3(CC2)CN(c2ncncc2Oc2ccc(F)cc2C(=O)N(CC(F)F)C(C)C)C3)OC1
+++ (“+++” means ≥66%)
6. CC(C)N(CC(F)F)C(=O)c1cc(F)ccc1Oc1cncnc1N1CC2(CCN(C[C@@H]3CC[C@@H](NS(=O)(=O)NCC(F)F)CO3)CC2)C1
+++ (“+++” means ≥66%)

Query string: Fill: hERG % Remaining 30 μM (hERG (Homo sapiens (Human), UniProt Q12809)) for this compound CCNS(=O)(=O)N[C@@H]1CC[C@@H](CN2CCC3(CC2)CN(c2ncncc2Oc2ccc(F)cc2C(=O)N(CC(F)F)C(C)C)C3)OC1
Result string: +++ (“+++” means ≥66%)

Query string: Fill: hERG % Remaining 30 μM (hERG (Homo sapiens (Human), UniProt Q12809)) for this compound CC(C)N(CC(F)F)C(=O)c1cc(F)ccc1Oc1cncnc1N1CC2(CCN(C[C@@H]3CC[C@@H](NS(=O)(=O)NCC4CC4)CO3)CC2)C1
Result string: +++ (“+++” means ≥66%)

---

target: hERG (Homo sapiens (Human), UniProt Q12809); assay: Patch clamp assay (hERG tail currents, whole-cell); format: cell-based; details: 30 μM compound, hERG transfected HEK 293 cells
quantityMeasured: hERG % Remaining 30 μM

Worked cases, hERG % Remaining 30 μM given:
1) CC(C)N(C(=O)c1cc(F)ccc1Oc1cncnc1N1CC2(CCN(C[C@@H]3CC[C@@H](NS(=O)(=O)N4CCOCC4)CO3)CC2)C1)C(C)C
+++ (“+++” means ≥66%)
2) CC(C)N(C(=O)c1cc(F)ccc1Oc1nncnc1N1CC2(CCN(C[C@@H]3CC[C@@H](NS(=O)(=O)C4CC4)CO3)CC2)C1)C(C)C
+++ (“+++” means ≥66%)
3) CC(C)N(C(=O)c1cc(F)ccc1Oc1cncnc1N1CC2(CCN(C[C@@H]3CC[C@@H](NS(=O)(=O)N4CC5(CCOC5)C4)CO3)CC2)C1)C(C)C
+++ (“+++” means ≥66%)
4) CCN(C(=O)c1cc(F)ccc1Oc1cncnc1N1CC2(CCN(C[C@@H]3CC[C@@H](NS(=O)(=O)c4ccccc4)CO3)CC2)C1)C(C)C
+ (“+” means <33%)
5) CC(C)N(C(=O)c1cc(F)ccc1Oc1cncnc1N1CC2(CCN(C[C@@H]3CC[C@@H](NS(=O)(=O)N(C)C)CO3)CC2)C1)[C@H]1CCOC1
+++ (“+++” means ≥66%)
6) CO[C@H]1CCN(S(=O)(=O)N[C@@H]2CC[C@@H](CN3CCC4(CC3)CN(c3ncncc3Oc3ccc(F)cc3C(=O)N(C(C)C)C(C)C)C4)OC2)C1
+++ (“+++” means ≥66%)

Query string: State its hERG % Remaining 30 μM for this molecule: CC(C)N(C(=O)c1cc(F)ccc1Oc1cncnc1N1CC2(CCN(C[C@@H]3CC[C@@H](NS(=O)(=O)c4cnn(C(F)F)c4)CO3)CC2)C1)C(C)C
Result string: + (“+” means <33%)

Query string: State its hERG % Remaining 30 μM for this molecule: CCN(C(=O)c1cc(F)ccc1Oc1cncnc1N1CC2(CCN(C[C@@H]3CC[C@@H](NS(=O)(=O)CC)CO3)CC2)C1)C(C)C
Result string: +++ (“+++” means ≥66%)

Query string: State its hERG % Remaining 30 μM for this molecule: CCN(C(=O)c1cc(F)ccc1Oc1cncnc1N1CC2(CCN(C[C@@H]3CC[C@@H](NS(=O)(=O)N4CCC[C@H]4C)CO3)CC2)C1)C(C)C
Result string: + (“+” means <33%)

Query string: State its hERG % Remaining 30 μM for this molecule: Cc1nn(C)cc1S(=O)(=O)N[C@@H]1CC[C@@H](CN2CCC3(CC2)CN(c2ncncc2Oc2ccc(F)cc2C(=O)N(CC(F)F)C(C)C)C3)OC1
Result string: +++ (“+++” means ≥66%)

Query string: State its hERG % Remaining 30 μM for this molecule: CC(C)N(C(=O)c1cc(F)ccc1Oc1cncnc1N1CC2(CCN(C[C@@H]3CC[C@@H](NS(=O)(=O)C4CC4)CO3)CC2)C1)[C@H]1CCOC1
Result string: +++ (“+++” means ≥66%)

Query string: State its hERG % Remaining 30 μM for this molecule: CC(C)N(CCC#N)C(=O)c1cc(F)ccc1Oc1cncnc1N1CC2(CCN(C[C@@H]3CC[C@@H](NS(=O)(=O)c4ccccc4)CO3)CC2)C1
Result string: + (“+” means <33%)

Query string: State its hERG % Remaining 30 μM for this molecule: CCN(C(=O)c1cc(F)ccc1Oc1cncnc1N1CC2(CCN(C[C@@H]3CC[C@@H](NS(=O)(=O)c4c[nH]c(=O)cc4C)CO3)CC2)C1)C(C)C
Result string: +++ (“+++” means ≥66%)

Query string: State its hERG % Remaining 30 μM for this molecule: CC(C)N(C(=O)c1cc(F)ccc1Oc1cncnc1N1CC2(CCN(C[C@@H]3CC[C@@H](NS(=O)(=O)N4CC5COCC5C4)CO3)CC2)C1)C(C)C (some centres unmarked)
Result string: +++ (“+++” means ≥66%)

---

target: Menin-MLL (Homo sapiens (Human)); experiment: Determination of binding constants (Ki) to Menin-MLL (HTRF); details: HTRF; 0.25 nM H-FL-Menin, 3.2 nM FITC-MLL-4-43, 24 hr incubation; read-out: Menin-MLL Ki HTRF Assay: Ki
Sequence (O00255 whole entry): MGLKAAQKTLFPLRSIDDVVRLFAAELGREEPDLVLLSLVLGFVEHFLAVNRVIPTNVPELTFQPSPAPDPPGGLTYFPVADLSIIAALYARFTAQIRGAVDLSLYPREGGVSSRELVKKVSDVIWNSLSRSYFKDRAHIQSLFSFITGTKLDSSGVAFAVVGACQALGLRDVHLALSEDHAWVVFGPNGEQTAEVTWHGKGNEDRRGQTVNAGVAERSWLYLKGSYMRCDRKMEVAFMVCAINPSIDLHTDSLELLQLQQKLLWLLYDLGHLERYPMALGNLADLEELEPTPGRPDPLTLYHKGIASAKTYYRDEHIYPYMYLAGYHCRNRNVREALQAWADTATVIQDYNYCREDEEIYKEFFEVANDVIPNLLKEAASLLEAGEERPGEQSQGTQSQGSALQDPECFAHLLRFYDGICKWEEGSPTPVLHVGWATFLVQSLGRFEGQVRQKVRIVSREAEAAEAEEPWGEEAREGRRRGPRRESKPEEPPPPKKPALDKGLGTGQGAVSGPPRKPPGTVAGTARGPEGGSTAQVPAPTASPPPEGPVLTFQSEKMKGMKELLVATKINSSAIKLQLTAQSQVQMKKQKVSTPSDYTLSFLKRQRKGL
quantityMeasured: Ki

Query string: State its Ki for this molecule: CC(C)N(CC(F)F)C(=O)c1cc(F)ccc1Oc1cncnc1N1CC2(CCN(C[C@@H]3CC[C@@H](NS(=O)(=O)N(C)C)CO3)CC2)C1
Result string: < 1 nM

Query string: State its Ki for this molecule: CC(C)N(C(=O)c1cc(F)ccc1Oc1cncnc1N1CC2(CCN(C[C@@H]3CC[C@@H](NS(=O)(=O)N(C)C(C)C)CO3)CC2)C1)C1CC(F)(F)C1
Result string: < 1 nM

Query string: State its Ki for this molecule: CC(C)N(C(=O)c1cc(F)ccc1Oc1cncnc1N1CC2(CCN(C[C@@H]3CC[C@@H](NS(=O)(=O)C4CC4)CO3)CC2)C1)[C@H]1CCOC1
Result string: < 1 nM

Query string: State its Ki for this molecule: CCNS(=O)(=O)N[C@@H]1CC[C@@H](CN2CCC3(CC2)CN(c2ncncc2Oc2ccc(F)cc2C(=O)N(C(C)C)[C@@H]2CCOC2)C3)OC1
Result string: < 1 nM

Query string: State its Ki for this molecule: CCS(=O)(=O)N[C@@H]1CC[C@@H](CN2CCC3(CC2)CN(c2ncnnc2Oc2ccc(F)cc2C(=O)N(CC(F)(F)F)C(C)C)C3)OC1
Result string: < 1 nM

Query string: State its Ki for this molecule: CCS(=O)(=O)N[C@@H]1CC[C@@H](CN2CCC3(CC2)CN(c2ncncc2Oc2ccc(F)cc2C(=O)N(CC(F)(F)F)C(C)C)C3)OC1
Result string: < 1 nM

---

tested on: MV4-11 cells; assay: Cell proliferation assay MV4;11 (CellTiter-Glo, 72 hours); assay type: cell-based; settings: Homo sapiens; MV4;11 leukemia cell line, 72 hours; read-out: MV4; 11 IC50
For each of the compounds below, state its IC50.

Query string: State its IC50 for this compound: CCNS(=O)(=O)N[C@@H]1CC[C@@H](CN2CCC3(CC2)CN(c2ncncc2Oc2ccc(F)cc2C(=O)N(C(C)C)C2CC(F)(F)C2)C3)OC1 [Example 155]
Result string: < 100 nM

Query string: State its IC50 for this compound: CCN(C(=O)c1cc(F)ccc1Oc1cncnc1N1CC2(CCN(C[C@@H]3CC[C@@H](NS(=O)(=O)NC)CO3)CC2)C1)C(C)C [Example 76]
Result string: < 100 nM

Query string: State its IC50 for this compound: CC(C)N(C(=O)c1cc(F)ccc1Oc1cncnc1N1CC2(CCN(C[C@@H]3CC[C@@H](NS(=O)(=O)N4CCC4)CO3)CC2)C1)[C@H]1CCOC1 [Example 134]
Result string: < 100 nM
